These data points were gathered from PubChem BioAssay (NCI).

test system: HS 578T breast; experiment: NCI-60 one-dose screen, 48 h (100 = growth as untreated, 0 = no growth, -100 = all killed); details: 10 µM unless noted
Compounds without any hit were thinned out: in the full panel of roughly 83,000, 20% have a hit.
Field: label. Allowed values: met (growth < 60%) or not met (growth >= 60%).

See these solved cases before continuing.
Cc1ccc(CC(=O)O)c(C)c1 : not met
CCOC(=O)c1csc(-c2ccc(COC(=O)c3ccccc3)o2)n1 : not met
C/C(=N\Nc1ccc(Cl)cn1)c1ccccn1 : met
COc1ccc2c(N)ncc(C#Cc3cc(C(=O)Nc4ccc(CN5CCN(C)CC5)c(C(F)(F)F)c4)cnc3C)c2c1 : met
FC(F)(F)c1cccc(-c2[nH]ncc2-c2nnnn2-c2ccccc2)c1 : met
CC1=C(C)C[C@]2(C(=O)O[C@H]3CCCC[C@@H]32)[S@](=O)C1 : not met

Incoming: State whether 60% exceeds growth recorded for COc1nc(OC)nc(-c2cc(-c3cc(OC)c(OC)c(OC)c3)no2)n1 .
Outgoing: not met

Incoming: State whether 60% exceeds growth recorded for COc1ccc(/C=C(/C(=O)N2CCCCC2)c2cc(OC)c(OC)c(OC)c2)cc1 .
Outgoing: met

Incoming: State whether 60% exceeds growth recorded for Nc1ccc(S(=O)(=O)Nc2cc(F)cc(F)c2)cc1 .
Outgoing: not met

Incoming: State whether 60% exceeds growth recorded for C#CCCCCCCC[C@@H]1OC(=O)[C@H]([C@@H](C)CC)NC(=O)[C@@H]([C@@H](C)CC)NC(=O)CC(=O)[C@@H]1C .
Outgoing: not met

Incoming: State whether 60% exceeds growth recorded for Cc1nc(N)sc1C(=O)NCCO .
Outgoing: not met

Incoming: State whether 60% exceeds growth recorded for COc1ccc(C(=O)c2no[n+]([O-])c2C(=O)c2ccc(OC)cc2)cc1 .
Outgoing: not met

Incoming: State whether 60% exceeds growth recorded for COc1cc(-c2nc3c(c(C)nc4c3nnn4-c3ccccc3)c(=O)o2)cc(OC)c1OC .
Outgoing: not met

Incoming: State whether 60% exceeds growth recorded for Ic1ccc(SSc2ccc(I)cc2)cc1 .
Outgoing: not met

Incoming: State whether 60% exceeds growth recorded for O=C1CSC(c2ccccc2Cl)N1c1nnc(-c2ccncc2)o1 (stereo unspecified) .
Outgoing: not met

Incoming: State whether 60% exceeds growth recorded for CN1CCN(Cc2ccc(NC(=O)c3ccc(C#Cc4c(N)ncc5ccc(F)cc45)cc3)cc2C(F)(F)F)CC1 .
Outgoing: met

Incoming: State whether 60% exceeds growth recorded for O=Nc1c(-c2c(O)[nH]c3cc(Br)ccc23)[nH]c2ccccc12 .
Outgoing: met

Incoming: State whether 60% exceeds growth recorded for N=c1c2c(=O)n3c(nc2nc2sc4ccc(Cl)cc4n12)-c1ccccc1Sc1ccccc1-3 .
Outgoing: met

Incoming: State whether 60% exceeds growth recorded for COc1ccc(C(=O)NCCNc2nccc(-c3c(-c4ccc(F)cc4)nc4sccn34)n2)cc1 .
Outgoing: met

Incoming: State whether 60% exceeds growth recorded for N=C(c1ccccc1)N(Cc1ccccc1)Cc1ccccc1 .
Outgoing: not met

Incoming: State whether 60% exceeds growth recorded for CC(CCN1CCN(CCC(C)CC(C)(C)C)C1CC(C)CC(C)(C)C)CC(C)(C)C (stereo unspecified) .
Outgoing: not met

Incoming: State whether 60% exceeds growth recorded for c1ccc(C(=NNc2nc3ccccc3o2)c2ccccn2)nc1 .
Outgoing: met

Incoming: State whether 60% exceeds growth recorded for COc1cccc(NC(=O)NCCNc2nccc(-c3c(-c4ccc(F)cc4)nc4sccn34)n2)c1 .
Outgoing: not met

Incoming: State whether 60% exceeds growth recorded for Cc1ccc2c(O)c(O)cc(NC(C)CCCN)c2n1 (stereo unspecified) .
Outgoing: not met

Incoming: State whether 60% exceeds growth recorded for O=C1/C(=N\c2cc(=O)[nH]n2S(=O)(=O)c2ccccc2)Nc2ccccc21 .
Outgoing: not met

Incoming: State whether 60% exceeds growth recorded for O=C(NC(=S)NNC(=S)NNc1ccccc1)c1ccccc1 .
Outgoing: met

###

test system: SR leukemia; assay: NCI-60 one-dose screen, 48 h (100 = growth as untreated, 0 = no growth, -100 = all killed); settings: 10 µM unless noted
Compounds without any hit were thinned out: in the full panel of roughly 83,000, 20% have a hit.
The entries below are paired with their reported growth.
Please respond with the number in % and leave the unit unwritten.

O=C(/C=C\c1ccc(NCc2ccc(C(=O)O)cc2)cc1)CCl : -12.1
CCCCCCCCCCCCCCCCC(=O)O.CCCCCCCCCCCCCCCCCC(=O)O.CCCCCCCCCCCCCCCCCC(=O)O.CCCCCCCCCCCCCCCCCC(=O)O.CCCCCCCCCCCCCCCCCC(=O)O.CO[CH-]OC12COC1CC(O)C1(C)C(O)C(OC(C)O)C3=C(C)C(OC(=O)C(O)C([NH-])c4ccccc4)CC(O)(C(OC(=O)c4ccccc4)C21)C3(C)C.[Cu+].[Zn].[Zn].[Zn].[Zn].[Zn] (stereo unspecified) : 37.4

Incoming: Entry COCC(=O)NNc1[nH]c(-c2ccc(OC)cc2)cc1C#N has what growth?
Outgoing: 102

Incoming: Entry CC1(C)NC(=S)NC1=O has what growth?
Outgoing: 93.1

Incoming: Entry OC(c1ccccc1)(c1ccccc1)C(F)(F)F has what growth?
Outgoing: 85.3

###

test system: OVCAR-4 ovarian; assay: NCI-60 one-dose screen, 48 h; details: 10 µM unless noted
About 83,000 compounds went through this panel and 20% of them were active in at least one assay; those are over-represented in the sample as a whole. Activity calls are given as the source filed them. How the source made its calls: active means growth percent below 10; inactive means the rest.
Choose one outcome from this list and give only that: active, inactive

See these solved cases before continuing.
Cc1c(Cc2ccccc2)c(=O)oc2c(C)c(OCc3n[nH]c(=S)o3)ccc12 : inactive
C=CCNC(=S)NNc1ccc([N+](=O)[O-])cn1 : active
CCCNC(=O)Oc1ccc(/C(=C(/CC)Cc2ccccc2)c2ccc(OCCN(CC)CC)cc2)cc1 : inactive
Cc1nc(NC(=O)NC2CCCCC2)sc1C(=O)NN : inactive

Incoming: Dear all, I need the recorded test outcome for COC(=O)c1ccc(C(=Nc2ccc(N(C)C(=O)CN3CCN(C)CC3)cc2)c2c(O)[nH]c3ccc(C(=O)OC)cc23)cc1 , thank you.
Outgoing: inactive

###

test system: EKVX NSCLC; assay: NCI-60 one-dose screen, 48 h (100 = growth as untreated, 0 = no growth, -100 = all killed); conditions: 10 µM
Compounds without any hit were thinned out: in the full panel of roughly 83,000, 20% have a hit.
The entries below are paired with their reported growth.
Please respond with the number in % and leave the unit unwritten.

COc1ccc(/C=C2\SC(=O)N(Cc3cc(=O)oc4ccc(OC)cc34)C2=O)cc1 : 79.3
COc1ccc(CN2C(=O)/C(=C\C(=O)c3ccc(OCCN4CCCC4)cc3)c3ccccc32)cc1 : 96.4
Nc1nc2c(c3cnccc13)C(c1cccc(Br)c1)Cc1cnccc1-2 (stereo not given) : 27.6
CC(C)CSc1nc(-c2ccc(F)cc2)c(C#N)c(N2CCCCC2)n1 : 93.4
Cc1cc2c(-c3nc4ccccc4[nH]3)c(O)c(O)cc2c(O)c1-c1c(C)cc2c(-c3nc4ccccc4[nH]3)c(O)c(O)cc2c1O : 8.33
O=C(Nc1ccc(-n2cc(-c3ccncc3)c(-c3ccc(Cl)c(O)c3)n2)cc1)c1cc(Cl)cc(Cl)c1 : 75.7
COc1cccc2c1nc1cccc(OC)c1[n+]2[O-] : 57.8
Cc1cc2cn3c4ccc(O)cc4[nH]c(=O)c3c2cc1C : 41.3

Incoming: Entry CCCCn1c(Cc2ccc(OC)cc2)nc2cc(OC)c(OC)cc2c1=O has what growth?
Outgoing: 44.8

Incoming: Entry O=C1/C(=N\c2cc(=O)[nH]n2S(=O)(=O)c2ccccc2)Nc2ccccc21 has what growth?
Outgoing: 101

Incoming: Entry CCN(CC)CCNc1ncnc2c1cnn2-c1ccc(Cl)cc1 has what growth?
Outgoing: 82.8

###

test system: HT29 colon; assay: NCI-60 one-dose screen, 48 h; conditions: 10 µM unless noted
Compounds without any hit were thinned out: in the full panel of roughly 83,000, 20% have a hit. The source made the active and inactive calls. The calls were made as follows: active = growth percent below 10; inactive = the rest.
Choose one outcome from this list and give only that: active, inactive

CCC(C)(C)c1ccc(OCCCCCCN2CCNCC2)cc1 : active

Incoming: Dear all, I need the recorded test outcome for O=C(Nc1ccc(-n2cc(-c3ccncc3)c(-c3ccc(Cl)c(O)c3)n2)cc1)Nc1ccc(Cl)c(C(F)(F)F)c1 , thank you.
Outgoing: active

Incoming: Dear all, I need the recorded test outcome for O=C(CBr)OCc1ccc([N+](=O)[O-])o1 , thank you.
Outgoing: inactive

Incoming: Dear all, I need the recorded test outcome for CCCC(CCC)Oc1ccc(CCCC2=C(O)c3ccccc3C(=O)C2=O)cc1 , thank you.
Outgoing: inactive

Incoming: Dear all, I need the recorded test outcome for O=C(O)c1occ(Cl)c1Cl , thank you.
Outgoing: inactive

Incoming: Dear all, I need the recorded test outcome for CC(C)CCCCCOC(=O)c1ccccc1SSc1ccccc1C(=O)OCCCCCC(C)C , thank you.
Outgoing: inactive

Incoming: Dear all, I need the recorded test outcome for CC1(c2ccc(Br)cc2)NC(=O)NC1=O (configuration not stated) , thank you.
Outgoing: inactive

Incoming: Dear all, I need the recorded test outcome for COc1ccc(CNCCCN2C(=O)c3ccc4c5c(ccc(c35)C2=O)C(=O)N(CCCNCc2ccc(OC)c(OC)c2OC)C4=O)c(OC)c1OC , thank you.
Outgoing: active

Incoming: Dear all, I need the recorded test outcome for Cc1ncc(C(=O)Nc2ccc(CN3CCN(C)CC3)c(C(F)(F)F)c2)cc1C#Cc1c(N)ncc2ccc(F)cc12 , thank you.
Outgoing: active

Incoming: Dear all, I need the recorded test outcome for CCCCCSc1ccc2nc(NC(=O)OCCC)sc2c1 , thank you.
Outgoing: inactive

Incoming: Dear all, I need the recorded test outcome for [2H]c1nc(=Nc2cc(NC(=O)C=C)c(N(C)CCN(C)C)cc2OC)[nH]c(-c2cn(C([2H])([2H])[2H])c3ccccc23)c1[2H] , thank you.
Outgoing: active
